- Tested on: Nrf2
- assay_info: Expression of Nrf2-regulated genes GCLM and NQO1 by qRT-PCR in Beas-2B cells (screen)
- Assay type: cell-based, human
- measurement_parameters: Homo sapiens, BEAS-2B, 16 h, DMSO = 1.0 (Table 2), read-out: Relative Fold Change NQO1
observable: fold induction at 10 µM
// response body must contain only the number

Some solved entries appear below for comparison.
compound: COc1ccc(OC)c(C(=O)/C=C/c2ccccc2[N+](=O)[O-])c1 [Compound 5g]
measured_result: 0.7
--
compound: COc1ccccc1C(=O)/C=C/c1cccc(C(F)(F)F)c1 [Compound 3b]
measured_result: 2.9
--
compound: COc1ccc(OC)c(C(=O)/C=C/c2ccccc2)c1 [Compound 1g]
measured_result: 2.6
--
compound: C[S+]([O-])CCCCN=C=S (stereo not drawn) [Sulforaphane, reference compound]
measured_result: 3.6
--
compound: O=C(/C=C/c1ccccc1C(F)(F)F)c1ccccc1 [Compound 2a]
measured_result: 5.3
--
compound: COc1ccc(C(=O)/C=C/c2ccccc2C(F)(F)F)cc1OC [Compound 2h]
measured_result: 2.7
--
compound: COc1cccc(C(=O)/C=C/c2cccc(C(F)(F)F)c2)c1 [Compound 3c]
measured_result: 3.5
--
compound: COc1cccc(OC)c1C(=O)/C=C/c1ccccc1 [Compound 1f]
measured_result: 1.9

Let's switch to this compound now.
Request: What fold induction at 10 µM value was documented for this compound, COc1ccc(OC)c(C(=O)/C=C/c2ccc(C(F)(F)F)cc2)c1 [Compound 4g] ?
Result: 4

###

Each entry below carries its recorded % Cell Viability.
- Tested on: Beas-2B cells
- assay_info: Cell viability / cytotoxicity (MTT assay) in Beas-2B cells
- Assay type: cell-based, human
- measurement_parameters: 24 h, DMSO = 100
Give the quantity in %, number only.

Look over these answered cases.
compound: COc1cccc(OC)c1C(=O)/C=C/c1ccccc1[N+](=O)[O-]
target_entity: Beas-2B cells
% Cell Viability / %: 75.8

compound: C[S+]([O-])CCCCN=C=S (stereo not shown) [Sulforaphane, reference compound]
target_entity: Beas-2B cells
% Cell Viability / %: 97.3

compound: COc1ccccc1C(=O)/C=C/c1ccccc1C(F)(F)F
target_entity: Beas-2B cells
% Cell Viability / %: 100.9

compound: O=C(/C=C/c1ccccc1C(F)(F)F)c1ccccc1
target_entity: Beas-2B cells
% Cell Viability / %: 144.8

compound: COc1ccc(C(=O)/C=C/c2ccc(C(F)(F)F)cc2)cc1
target_entity: Beas-2B cells
% Cell Viability / %: 104.1

compound: COc1ccccc1C(=O)/C=C/c1ccc(C(F)(F)F)cc1
target_entity: Beas-2B cells
% Cell Viability / %: 91

compound: COc1cccc(C(=O)/C=C/c2cccc(C(F)(F)F)c2)c1
target_entity: Beas-2B cells
% Cell Viability / %: 95.3

compound: COc1ccc(C(=O)/C=C/c2ccccc2C(F)(F)F)c(OC)c1OC
target_entity: Beas-2B cells
% Cell Viability / %: 101.6

Request: What value of measured % Cell Viability is listed for `COc1cccc(OC)c1C(=O)/C=C/c1ccccc1C(F)(F)F` ?
Result: 101.1

Request: Which % Cell Viability reading was recorded for the compound `COc1ccc(C(=O)/C=C/c2ccc(C(F)(F)F)cc2)c(OC)c1OC` ?
Result: 100.1

Request: What % Cell Viability value was documented for this compound, `COc1ccc(OC)c(C(=O)/C=C/c2ccc(C(F)(F)F)cc2)c1` ?
Result: 91.6

Request: Using the record for `COc1cccc(C(=O)/C=C/c2ccccc2C(F)(F)F)c1` , report its % Cell Viability.
Result: 96.6

Request: Dear colleague, I am looking for the recorded % Cell Viability of the following compound: `COc1ccc(C(=O)/C=C/c2ccc(C(F)(F)F)cc2)c(OC)c1`
Result: 92.6

Request: Look up % Cell Viability for this compound: `COc1ccc(C(=O)/C=C/c2ccccc2C(F)(F)F)c(OC)c1`
Result: 105
